measurement.description: In vivo PK study in male CD1 mice
condition.notes: male, CD1, mouse, plasma; mice, 10 mg/kg PO; read-out: AUCLast Mean
AUC(0-t) values, listed per item
measurement.name: AUC(0-t) (ng·h/mL)

# smiles, value.observed
records = [
    ("CC(C)(O)Cn1cnc2c(-c3cccnc3)nc(-c3ccc(C(F)(F)F)cn3)cc2c1=O", 96100),
    ("Cn1cc(-c2nc(-c3ccc(C(F)(F)F)nc3)cc3c(=O)n(CC(C)(C)O)cnc23)cn1", 29800),
    ("C[C@H](n1cnc2c(-c3cnn(C)c3)nc(-c3ccc(Cl)cc3)cc2c1=O)C(C)(C)O", 72800),
    ("C[C@@H](CO)n1cnc2c(-c3cccnc3)nc(-c3ccc(C(F)(F)F)cn3)cc2c1=O", 67700),
    ("Cc1ccc(-c2cc3c(=O)n([C@@H](C)CO)cnc3c(-c3cccnc3)n2)cc1", 497),
    ("Cn1cc(-c2nc(-c3ccc(C(F)(F)F)cn3)cc3c(=O)n(CC(C)(C)O)cnc23)cn1", 6060),
    ("CC(C)(O)Cn1cnc2c(-c3cccnc3)nc(-c3ccc(Cl)cc3)cc2c1=O", 45800),
]

---

measurement.description: In vivo PK study in male CD1 mice
condition.notes: male, CD1, mouse, plasma; mice, 10 mg/kg PO; read-out: Bioavailability
Returns yes (1) if the recorded bioavailability is greater than or equal to 80%, and no (0) otherwise.

# smiles, classification
rows = [
    ("C[C@H](n1cnc2c(-c3cnn(C)c3)nc(-c3ccc(Cl)cc3)cc2c1=O)C(C)(C)O", "yes (1)"),
    ("CC(C)(O)Cn1cnc2c(-c3cccnc3)nc(-c3ccc(C(F)(F)F)nc3)cc2c1=O", "no (0)"),
    ("Cc1ccc(-c2cc3c(=O)n([C@@H](C)CO)cnc3c(-c3cccnc3)n2)cc1", "no (0)"),
    ("CC(C)(O)Cn1cnc2c(-c3cccnc3)nc(-c3ccc(C(F)(F)F)cn3)cc2c1=O", "yes (1)"),
    ("Cn1cc(-c2nc(-c3ccc(C(F)(F)F)cn3)cc3c(=O)n(CC(C)(C)O)cnc23)cn1", "no (0)"),
    ("Cn1cc(-c2nc(-c3ccc(C(F)(F)F)nc3)cc3c(=O)n(CC(C)(C)O)cnc23)cn1", "no (0)"),
    ("CC(C)(O)Cn1cnc2c(-c3cccnc3)nc(-c3ccc(Cl)cc3)cc2c1=O", "no (0)"),
]

---

measurement.description: Caco-2 Permeability Assay
Assay type: in vitro ADME
condition.notes: human, Caco-2, pH 7.4, +0.5% BSA; read-out: Caco 2 apparent permeability Papp (B−A)

# compound, Papp B→A at 2 h, 1 μM [×10⁻⁶ cm/s]
measured = [
    ("CC(C)(O)Cn1cnc2c(-c3cccnc3)nc(-c3ccc(C(F)(F)F)nc3)cc2c1=O [Compound 9]", 25),
    ("C[C@@H](CO)n1cnc2c(-c3cccnc3)nc(-c3ccc(C(F)(F)F)cn3)cc2c1=O [Compound 46]", 16.4),
]

---

measurement.target: CYP2D6 (Homo sapiens, UniProt P10635)
Construct: from tissue; host or cells: human liver microsomes (HLM)
Sequence (P10635 whole entry): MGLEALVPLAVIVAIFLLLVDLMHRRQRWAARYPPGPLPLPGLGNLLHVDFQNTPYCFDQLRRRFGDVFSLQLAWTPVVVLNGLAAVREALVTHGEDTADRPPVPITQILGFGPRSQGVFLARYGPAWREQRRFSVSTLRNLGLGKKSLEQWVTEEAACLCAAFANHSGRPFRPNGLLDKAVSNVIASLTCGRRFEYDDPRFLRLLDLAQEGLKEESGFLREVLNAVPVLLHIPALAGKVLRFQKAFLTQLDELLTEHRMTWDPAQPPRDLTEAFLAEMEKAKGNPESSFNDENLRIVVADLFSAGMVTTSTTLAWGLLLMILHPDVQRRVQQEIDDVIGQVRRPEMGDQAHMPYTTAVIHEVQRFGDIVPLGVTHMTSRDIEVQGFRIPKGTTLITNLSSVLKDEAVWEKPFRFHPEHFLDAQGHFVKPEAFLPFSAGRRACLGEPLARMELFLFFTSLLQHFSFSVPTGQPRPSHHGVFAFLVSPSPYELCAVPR
measurement.description: CYP Inhibition Assay in human liver microsomes, CYP2D6
Assay type: in vitro ADME
condition.notes: pH 7.4
inhibition at 10 µM values, listed per item
measurement.name: inhibition at 10 µM

# smiles, value.observed
records = [
    ("C[C@@H](CO)n1cnc2c(-c3cnn(C)c3)nc(-c3ccc(C(F)(F)F)nc3)cc2c1=O", "10.9%"),
    ("C[C@@H](CO)n1cnc2c(-c3cnn(C)c3)nc(-c3ccc(Cl)cc3)cc2c1=O", "8.96%"),
    ("C[C@@H](CO)n1cnc2c(-c3cccnc3)nc(-c3ccc(C(F)(F)F)nc3)cc2c1=O", "8.45%"),
    ("CC(C)(O)Cn1cnc2c(-c3cccnc3)nc(-c3ccc(C(F)(F)F)cc3)cc2c1=O", "15.6%"),
    ("C[C@H](n1cnc2c(-c3cnn(C)c3)nc(-c3ccc(Cl)cc3)cc2c1=O)C(C)(C)O", "11.2%"),
    ("CC(C)(O)Cn1cnc2c(-c3cccnc3)nc(-c3ccc(Cl)cc3)cc2c1=O", "12.1%"),
    ("C[C@@H](CO)n1cnc2c(-c3cccnc3)nc(-c3ccc(C4CC4)nc3)cc2c1=O", "7.27%"),
    ("C[C@@H](CO)n1cnc2c(-c3cccc(F)c3)nc(-c3ccc(Cl)cc3)cc2c1=O", "6.78%"),
    ("O=c1c2cc(-c3ccc(Cl)cc3)nc(-c3cccnc3)c2ncn1[C@H]1COC[C@@H]1O", "20.6%"),
    ("Cn1cc(-c2nc(-c3ccc(C(F)(F)F)cn3)cc3c(=O)n(CC(C)(C)O)cnc23)cn1", "8.7%"),
]

---

measurement.description: In vivo PK study in male Sprague Dawley rats
condition.notes: male, Sprague Dawley, rat, plasma; rats, PO, dosage of 10 mg/kg
measurement.name: Tmax (h)

# smiles, unit.abbreviation, value.observed
measured = [
    ("C[C@@H](CO)n1cnc2c(-c3cccc(F)c3)nc(-c3ccc(Cl)cc3)cc2c1=O", "h", 3.33),
]

---

fraction unbound at 5.5 h, 1 μM values, listed per item
measurement.description: Plasma Protein Binding with Ultracentrifugation Method, mouse
Assay type: in vitro ADME
condition.notes: mouse, plasma; read-out: Plasma Protein Binding PPB (m) % (converted)

# compound, fraction unbound at 5.5 h, 1 μM
rows = [
    ("CC(C)(O)Cn1cnc2c(-c3cccnc3)nc(-c3ccc(C(F)(F)F)nc3)cc2c1=O [Compound 9]", 0.104),
    ("C[C@@H](CO)n1cnc2c(-c3cccnc3)nc(-c3ccc(C(F)(F)F)cn3)cc2c1=O [Compound 46]", 0.075),
]

---

measurement.description: Solubility Determination Assay in PBS pH 1.6 and pH 7.4
Assay type: physicochemical
condition.notes: PBS buffer, aqueous buffer, kinetic from dmso stock, PBS pH 7.4, 25° C., read-out: Aq. Solubility at pH = 7.4
solubility at 2 h values, listed per item

# compound, solubility at 2 h
data = [
    ("Cc1nc(-c2cc3c(=O)n([C@@H](C)CO)cnc3c(-c3cccnc3)n2)cs1", "≥ 1 µM"),
    ("CNC(=O)[C@H](C)n1cnc2c(-c3cccnc3)nc(-c3ccc(C(F)(F)F)nc3)cc2c1=O", "≥ 1 µM"),
    ("O=c1c2cc(-c3ccc(C(F)(F)F)cn3)nc(-c3cccnc3)c2ncn1[C@H]1COC[C@@H]1O", "≥ 1 µM"),
    ("C[C@H](O)Cn1cnc2c(-c3cccnc3)nc(-c3ccc(C(F)(F)F)cn3)cc2c1=O", "≥ 1 µM"),
    ("CC(C)(O)Cn1cnc2c(-c3cccc(F)c3)nc(-c3ccc(Cl)cc3)cc2c1=O", "< 0.1 µM"),
    ("O=c1c2cc(-c3ccc(C(F)(F)F)nc3)nc(-c3cccnc3)c2ncn1[C@H]1COC[C@H]1O", "≥ 1 µM"),
    ("C[C@@H](CO)n1cnc2c(-c3cnn(C)c3)nc(-c3cnc(C(F)(F)F)nc3)cc2c1=O", "≥ 1 µM"),
    ("C[C@@H](O)Cn1cnc2c(-c3cccnc3)nc(-c3ccc(C(F)(F)F)cn3)cc2c1=O", "≥ 1 µM"),
    ("C[C@@H](n1cnc2c(-c3cnn(C)c3)nc(-c3ccc(Cl)cc3)cc2c1=O)C(C)(C)O", "0.1 to 1 µM"),
    ("Cn1cc(-c2nc(-c3ccc(C4CC4)nc3)cc3c(=O)n(CC(C)(C)O)cnc23)cn1", "≥ 1 µM"),
    ("O=c1c2cc(-c3ccc(Cl)cc3)nc(-c3cccnc3)c2ncn1C[C@@H](O)C(F)(F)F (single isomer, unassigned) [185 enantiomer 1]", "0.1 to 1 µM"),
    ("C[C@@H](CO)n1cnc2c(-c3cnsc3)nc(-c3ccc(C(F)(F)F)cn3)cc2c1=O", "0.1 to 1 µM"),
    ("Cc1ccc(-c2cc3c(=O)n([C@@H](C)CO)cnc3c(-c3cccc(F)c3)n2)cc1", "0.1 to 1 µM"),
    ("C[C@H](O)Cn1cnc2c(-c3cnn(C)c3)nc(-c3ccc(C(F)(F)F)nc3)cc2c1=O", "0.1 to 1 µM"),
    ("C[C@@H](CO)n1cnc2c(-c3cccnc3)nc(-c3ccc(C(F)(F)F)nc3)cc2c1=O", "≥ 1 µM"),
]

---

measurement.target: AHR (Homo sapiens)
Construct: other cell line with a DRE-luciferase reporter stably transfected; endogenous in cells
Sequence (P35869 11-848): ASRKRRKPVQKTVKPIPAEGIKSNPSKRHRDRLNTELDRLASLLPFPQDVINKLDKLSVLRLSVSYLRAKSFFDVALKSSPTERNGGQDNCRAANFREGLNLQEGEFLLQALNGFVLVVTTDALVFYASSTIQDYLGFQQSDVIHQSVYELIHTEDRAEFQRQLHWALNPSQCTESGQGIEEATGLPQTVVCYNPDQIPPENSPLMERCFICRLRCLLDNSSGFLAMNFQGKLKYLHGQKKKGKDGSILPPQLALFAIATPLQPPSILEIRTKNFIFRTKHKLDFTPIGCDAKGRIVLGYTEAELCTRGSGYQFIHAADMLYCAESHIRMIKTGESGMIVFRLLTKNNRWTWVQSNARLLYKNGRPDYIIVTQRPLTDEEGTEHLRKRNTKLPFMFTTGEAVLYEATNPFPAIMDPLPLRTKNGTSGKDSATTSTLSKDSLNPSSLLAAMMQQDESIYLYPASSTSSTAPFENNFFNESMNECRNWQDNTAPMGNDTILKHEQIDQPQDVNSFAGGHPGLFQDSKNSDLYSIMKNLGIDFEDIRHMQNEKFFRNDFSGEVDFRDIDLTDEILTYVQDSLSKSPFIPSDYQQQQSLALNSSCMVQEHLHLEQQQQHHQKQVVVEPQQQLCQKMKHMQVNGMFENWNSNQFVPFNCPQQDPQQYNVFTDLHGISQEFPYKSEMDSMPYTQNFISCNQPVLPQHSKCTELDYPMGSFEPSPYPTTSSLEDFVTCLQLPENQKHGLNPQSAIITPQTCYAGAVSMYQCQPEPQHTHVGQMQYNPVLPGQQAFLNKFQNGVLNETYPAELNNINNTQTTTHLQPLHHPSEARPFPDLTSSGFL
measurement.description: DRE-Luciferase Reporter Assay, HepG2 AhR-Lucia reporter cells
condition.notes: with AHR activating ligand at EC50, read-out: HepG2-Luc IC50
measurement.name: IC50

# compound, value.observed
rows = [
    ("Cn1cc(-c2nc(-c3ccc(C(F)(F)F)nc3)cc3c(=O)n([C@H]4COC[C@@H]4O)cnc23)cn1", "< 100 nM"),
    ("C[C@@H](CO)n1cnc2c(-c3cccnc3)nc(-c3ccc(C(=O)O)nc3)cc2c1=O", "> 500 nM"),
    ("C[C@@H](CO)n1cnc2c(-c3cncc(F)c3)nc(-c3ccc(OC(F)(F)F)cc3)cc2c1=O", "< 100 nM"),
    ("O=c1c2cc(-c3ccc(C(F)(F)F)nc3)nc(-c3cccnc3)c2ncn1-c1ccccc1", "< 100 nM"),
    ("Cc1ccc(-c2cc3c(=O)n([C@@H](C)CO)cnc3c(-c3cccnc3)n2)cn1", "< 100 nM"),
    ("C[C@@H](CO)n1cnc2c(-n3ccnc3)nc(-c3ccc(C(F)(F)F)cn3)cc2c1=O", "< 100 nM"),
    ("Cn1cc(-c2nc(-c3ccc(Cl)cc3)cc3c(=O)n(CC(C)(C)O)cnc23)cn1", "< 100 nM"),
    ("C[C@@H](CO)n1cnc2c(-n3cccn3)nc(-c3ccc(C(F)(F)F)nc3)cc2c1=O", "< 100 nM"),
    ("O=c1c2cc(-c3ccc(C(F)(F)F)nc3)nc(-c3cccnc3)c2ncn1C1CCS(=O)(=O)C1 (stereo not shown)", "< 100 nM"),
    ("C[C@@H](CO)n1cnc2c(-c3cccc(F)c3)nc(-c3ccc(Cl)cc3)cc2c1=O", "< 100 nM"),
    ("C[C@H](n1cnc2c(-c3cccnc3)nc(-c3cccnc3)cc2c1=O)C(C)(C)O", "< 100 nM"),
    ("C[C@H](n1cnc2c(-c3cccnc3)nc(-c3ccc(Cl)cc3)cc2c1=O)C(C)(C)O", "< 100 nM"),
    ("C[C@@H](C(=O)N[C@@H]1COC[C@H]1O)n1cnc2c(-c3cccnc3)nc(-c3ccc(C(F)(F)F)nc3)cc2c1=O", "100 to 500 nM"),
    ("C[C@@H](CO)n1cnc2c(-c3cccnc3)nc(-c3ccc(C4CC4)nc3)cc2c1=O", "< 100 nM"),
    ("C[C@@H](CO)n1cnc2c(-c3cncc(F)c3)nc(-c3cncc(F)c3)cc2c1=O", "100 to 500 nM"),
    ("CC(C)(O)Cn1cnc2c(-c3cccnc3)nc(-c3ccc(Cl)cc3)cc2c1=O", "< 100 nM"),
]
